src = PubChem BioAssay (Tox21)

Test: A CellTox Green Cytotoxicity Assay to monitor cytotoxicity in HepG2 cells - 8 hour (AID 1224890); further: on the % scale 0 is the no-effect control and ±100 the full control effect; nearly all actives have a fitted effect of over 45% in size
Conditions: CellTox Green fluorescence; series mostly up to 76.8 µM
Inconclusive results are not listed. Active and inactive are the calls of the source. The call rests on the fitted dose curve; in most records, active means well fitted activation curve with a large enough effect in the repeat runs; inconclusive means weak or mixed curves; inactive means flat fitted curve, though single readings scatter.
QUANTITY_MEASURED: cytotoxicity increase

Answered examples (3):
>>> df
                             compound      quantity_measured                      data_value
0                  CCCCCCCCCCCCCCCCCO  cytotoxicity increase   1.25% [at 15.8 µM] (inactive)
1                   C=C/C=C/C=C/CCCCC  cytotoxicity increase  -1.01% [at 15.8 µM] (inactive)
2  CCC(=O)CC(C)CC (centres undefined)  cytotoxicity increase   2.33% [at 0.29 µM] (inactive)

QUERY: Fill in the blank: the reported cytotoxicity increase of CCN1CCN(c2cc(-c3ccc(F)cc3)c3c(n2)CCCCCC3)CC1 is ____.
RESULT: 2.47% [at 15.8 µM] (inactive)

###

Experiment: qHTS RealTime-Glo MT Cell Viability Assay in HepG2 cells - 24 hour (AID 1224867); further: on the % scale 0 is the no-effect control and ±100 the full control effect; nearly all actives have a fitted effect of over 50% in size
Conditions: RealTime-Glo luminescence; series mostly up to 76.8 µM
Excerpt: U.S. Tox21 Program National Center for Advancing Translational Sciences [NCATS] NIH Chemical Genomics Center [NCGC] U.S. Environmental Protection Agency [EPA] National Institutes of Environmental Health Sciences [NIEHS] National Toxicology Program [NTP] U.S. Food and Drug Administration [FDA] Tox21 Assay Overview: Measure of cell viability is critical in the cell-base assay. Analysis of cell viability is necessary for the characterization of cell responses to cytotoxic drugs and environmental stress. […]
Records with an inconclusive call do not appear. Active and inactive are the calls of the source. Calls follow the shape of the dose curve; as a rule, active = well fitted cell-killing curve with a large enough effect in the repeat runs; inconclusive = weak or mixed curves; inactive = flat fitted curve, though single readings scatter.
# valid calls are active, inactive; nothing else

Example results:
COMPOUND	CLASS_ASSIGNMENT
CC1(C)C(=O)N(CO)C(=O)N1CO	inactive
COC(=O)[C@]1(C)CCC[C@@]2(C)[C@H]1CC=C1C=C(C(C)C)CC[C@@H]12	inactive
c1cc[nH]c1	inactive

QUERY: In this assay, the call recorded for Clc1cccnc1 was what?
RESULT: inactive

QUERY: How about this compound: CN1[C@@H]2CC[C@@H]1CC(OC(=O)C(CO)c1ccccc1)C2 (stereo partly specified)
RESULT: inactive

QUERY: How about this compound: NC(=O)c1ccccc1N
RESULT: inactive

QUERY: How about this compound: CC[N+](CC)(CC)Cc1ccccc1
RESULT: inactive

QUERY: How about this compound: CCOC(=O)COc1ccc(C)cc1
RESULT: inactive

QUERY: How about this compound: Brc1ccccn1
RESULT: inactive

QUERY: How about this compound: CCC(=O)OCCc1ccccc1
RESULT: inactive

QUERY: How about this compound: Cn1cnc2ncnc(N)c21
RESULT: inactive

QUERY: How about this compound: Clc1ccc(C(c2ccccc2Cl)C(Cl)Cl)cc1 (stereo unspecified)
RESULT: inactive

###

Test: qHTS assay for small molecule agonists of the antioxidant response element (ARE) signaling pathway - cell viability counter screen (AID 743203); further: nearly all actives have a fitted effect of over 55% in size; further: potency means the concentration at half of the fitted maximal effect
Details: ARE-bla HepG2 viability, CellTiter-Glo luminescence, 16 h; series mostly up to 73.3 µM
Results filed as inconclusive are left out. Active and inactive are the calls of the source. Calls follow the shape of the full dose curve.
QUANTITY_MEASURED: Potency

Answered examples (6):
>>> print(df.to_string())
                                   compound        data_value
0  CCCCCCC(C)Nc1ccc(Nc2ccccc2)cc1 (configuration not stated)          inactive
1  CC(C)(c1cc(Br)c(OCCO)c(Br)c1)c1cc(Br)c(OCCO)c(Br)c1  18.9 µM (active)
2  O=C1OC(OC(=O)c2cccnc2Nc2cccc(C(F)(F)F)c2)c2ccccc21 (configuration not stated)          inactive
3   O=C(Nc1ccc(Cl)c(Cl)c1)c1cc(Cl)cc(Cl)c1O  24.3 µM (active)
4                     CCOC(=O)COc1ccc(C)cc1          inactive
5    CN(C)CCCN1c2ccccc2Sc2ccc(C(F)(F)F)cc21  29.8 µM (active)

Give me Potency for each of these compounds, listed below.
1. C[Si](C)(C)Cl
2. O=C1NCCN1CCN1CCC(c2cn(-c3ccc(F)cc3)c3ccc(Cl)cc23)CC1
3. O=C1c2c(O)ccc([N+](=O)[O-])c2C(=O)c2c([N+](=O)[O-])ccc(O)c21
4. c1ccc(Nc2cccc3ccccc23)cc1
5. O=C1OC(=O)c2cccc3cccc1c23

RESULT:
1: inactive; 2: 26.6 µM (active); 3: 3.82 µM (active); 4: inactive; 5: inactive

QUERY: Fill in the blank: the reported Potency of CCCSS/C(CCO)=C(\C)N(C=O)Cc1cnc(C)nc1N is ____.
RESULT: inactive
